Test system: UACC-62 melanoma
Experiment: NCI-60 one-dose screen, 48 h
Conditions: 10 µM unless noted
Compounds without any hit were thinned out: in the full panel of roughly 83,000, 20% have a hit. Calls of active or inactive are those of the source. How the source made its calls: active means growth percent below 10; inactive means the rest.
Pick from YES (active), NO (inactive) when you respond.

Some entries whose results are on file:
* COc1ccc(Nc2nc(Nc3cc(C)[nH]n3)c3cc(OC)c(OC)cc3n2)cc1 | YES
* Cc1c(N2CCCCC2)[nH]c2ccccc12 | NO
* COc1ccc(/C=N\NC(=O)c2ccc3nc(-c4ccc(Cl)cc4)[nH]c3c2)cc1 | NO
* CCCCCCCC/C=C\CCCCCCCCOc1ccc(CC(=O)NCC[N+]2(C)CCCC2)cc1 | NO
* CCOC(=O)c1c2c(n3ccc(NC(=O)CCN4CCCC4)cc13)C(=O)c1ncccc1C2=O | YES
* COC(CCP(=O)(c1ccccc1)c1ccccc1)(C(=O)c1ccccc1)c1ccccc1 (stereo not given) | NO
* O=C1NCCS(=O)(=O)/C1=C\C=C\c1cccc(C(F)(F)F)c1 | YES
* Cc1ccc(C2(C)NC(=O)N(CC(=O)Nc3cccc(C)c3)C2=O)cc1 (stereo not given) | NO
* Cc1cc(C(=O)Nc2cc(Nc3ncccc3-c3ncnc4nc[nH]c34)ccc2F)cc(C(C)(C)C#N)c1 | YES

Now for another entry.
Task: Hey, what did the test say about `COc1ccc(N/N=C/c2ccc3c(c2)Sc2ccccc2N3C)cc1` ?
Result: NO

* * *

Test system: COLO 205 colon
Experiment: NCI-60 one-dose screen, 48 h (100 = growth as untreated, 0 = no growth, -100 = all killed)
Conditions: 10 µM unless noted
Compounds without any hit were thinned out: in the full panel of roughly 83,000, 20% have a hit.
Record 1 whenever growth is at 50% or higher; record 0 when lower.

* CNc1nc2ncc(-c3c(C)noc3C)cc2n1Cc1ccccc1 | 0
* COc1cc2c(c(OC)c1OC)CCC(c1cccc(NC(=O)c3cccc(Cl)c3)c1)O2 (stereo not given) | 1
* CCN1CCN(CCOc2ccc(CNc3ccc4nc(CCC5CCCCC5)[nH]c4c3)cc2)CC1 | 0

Then there is this molecule:
Task: Exam item: decide whether the reported growth for `Cc1ccc(C(F)(F)F)cc1N1CCN(C(=O)[C@H]2C[C@H]2c2ccc(C(F)(F)F)nc2)CC1` is at least 50%.
Result: 1

* * *

System: MDA-MB-435 melanoma
Assay: NCI-60 one-dose screen, 48 h (100 = growth as untreated, 0 = no growth, -100 = all killed)
Conditions: 10 µM unless noted
The panel holds about 83,000 compounds, 20% with a hit somewhere; the sample as a whole holds those more often. Activity calls are given as the source filed them. Rule for the calls: active = growth percent below 10; inactive = the rest.
Task for the reader: assign each of the following compounds its reported growth.

* COc1cc(OC)cc(C(=O)Nc2cnc(Nc3ccc(N4CCOCC4)nc3)nc2Oc2ccc(C(F)(F)F)cc2)c1 | 74.9% (inactive)
* CN1C(=O)N(C)C2C1NN=c1s/c(=C\c3ccccc3F)c(=O)n12 (stereo not given) | -40.2% (active)
* CCCC[N+]1(C)CCN=C1Cc1ccccc1 (stereo not given) | 104% (inactive)
* O=C(Oc1ccccc1)c1cc(O)c(O)c(O)c1 | 53.3% (inactive)

Task: // returns reported growth for input `NC(=N\N=C/c1ccc(Cl)cc1Cl)/C(N)=N\N=C/c1ccc(Cl)cc1Cl`
Result: 82.6% (inactive)
